These data points were gathered from paper PMC5261807.

# reported binding score; entries follow
# TARGET DESC: T1, Bdf1 bromodomain 2 (GST-tagged, WT) (Saccharomyces cerevisiae (strain ATCC …, UniProt P35817))
# T1 chain: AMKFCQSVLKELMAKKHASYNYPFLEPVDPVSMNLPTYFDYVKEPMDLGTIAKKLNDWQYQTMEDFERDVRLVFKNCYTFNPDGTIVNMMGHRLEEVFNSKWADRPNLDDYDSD
# EXPERIMENT SUMMARY: histone peptide array probed with recombinant GST-bromodomain, signal normalised to myc peptide control
Non-standard residues stand in square brackets, D forms with d. No end group written: not given here. Arg(Me2a) = CN(C)C(=N)NCCC[C@H](N)C(=O)O; Arg(Me2s) = CN=C(NC)NCCC[C@H](N)C(=O)O; Lys(Me2) = CN(C)CCCC[C@H](N)C(=O)O; pS = N[C@@H](COP(=O)(O)O)C(=O)O
Output spec: single numeric token, no unit.

{"BINDER": "ARTKQTARKSTGGKAPRKQ (A Rme2s T Kac Q T A R Kme3 S T G G K A P R K Q)", "binding score": 0}

Supply binding score value. Item: `A[Arg(Me2s)]TK(Ac)QTA[Arg(Me2a)][Lys(Me2)]STGGKAPRKQ`
0.00698

Supply binding score value. Item: PRKQLATKAARK(Me)[pS]APATGG [H3 16-35]
0
